These measurements were taken from PubChem BioAssay (NCI).

assay: NCI Yeast Anticancer Drug Screen. Data for the mec2-1 strain (AID 157); details: S. cerevisiae mec2-1 strain, at 50.0 µM, stronger effect = higher value
This is part of a sample that, as a whole, favours compounds with a hit. Of some 79,000 tested, about 15% had one in any assay.
Measurement label: growth inhibition (%)
Express the result in % but write the number alone.

Prompt line: Look up growth inhibition for this compound: `CC1(C)N=C(N)N=C(N)N1c1cccc(CCC(=O)Nc2cccnc2)c1`
Response line: 1.4

Prompt line: Look up growth inhibition for this compound: `CC1(C)Oc2ccc3ccccc3c2C(c2ccc(O)cc2)=C1c1ccccc1`
Response line: -11

Prompt line: Look up growth inhibition for this compound: `CC(=O)Oc1cccc(OC(C)=O)c1`
Response line: 38.9

Prompt line: Look up growth inhibition for this compound: `O=C1NC(=O)c2ccccc2/C1=C/c1ccc2c(c1)OCO2`
Response line: -8.25

Prompt line: Look up growth inhibition for this compound: `CC(C)c1ccc(OC(=O)Nc2c(Cl)cccc2Cl)cc1`
Response line: -27.6

Prompt line: Look up growth inhibition for this compound: `CCCCOC(=O)c1ccccc1OC`
Response line: 7.2

Prompt line: Look up growth inhibition for this compound: COc1ccc(C2CC(c3ccccc3)=NN2c2ccccc2)cc1 (configuration not stated)
Response line: -14.4

Prompt line: Look up growth inhibition for this compound: `Nc1c(Cl)ncnc1NCCN1CCOCC1`
Response line: 1.9

Prompt line: Look up growth inhibition for this compound: `O=c1[nH]c2c([N+](=O)[O-])cc(Cl)cc2nc1/C=C(\O)c1cccnc1`
Response line: 0.7

Prompt line: Look up growth inhibition for this compound: `CCNCC(=O)Nc1ccc(C(=O)OC)cc1`
Response line: -29.4

Prompt line: Look up growth inhibition for this compound: CCCCCNC(=O)C(C)O (configuration not stated)
Response line: -8.3

Prompt line: Look up growth inhibition for this compound: CC(=O)OCC(OC(C)=O)C1OC(OCc2ccccc2)C(OC(C)=O)C(OC(C)=O)C1OC(C)=O (configuration not stated)
Response line: -4.2

* * *

Answer each item with its documented growth inhibition.
assay: NCI Yeast Anticancer Drug Screen. Data for the mec2-1 strain (AID 157); settings: S. cerevisiae mec2-1 strain, at 50.0 µM, stronger effect = higher value
The panel holds about 79,000 compounds, 15% with a hit somewhere; the sample as a whole holds those more often.
Express the result in % but write the number alone.

Prompt line: Look up growth inhibition for this compound: `CCOC(=O)C(=N\Nc1ccccc1Br)/C(C)=N\NC(N)=S`
Response line: 19.6

Prompt line: Look up growth inhibition for this compound: `CCCCCCCCCCCCCCCCOc1ccc(Sc2ccc([N+](=O)[O-])cc2)cc1`
Response line: 4.2

Prompt line: Look up growth inhibition for this compound: CCOC(=O)C(C)F (stereo unspecified)
Response line: -26.1

Prompt line: Look up growth inhibition for this compound: `CC(C)CC/C(=N\NC(N)=O)C1CCOCC1`
Response line: 14.2

Prompt line: Look up growth inhibition for this compound: `CNc1ccc(Cl)cc1C(N)=O`
Response line: 6.9

Prompt line: Look up growth inhibition for this compound: COc1cc2c3c(c1)nc(C)n3C(=O)C(C)S2 (stereo unspecified)
Response line: -46.9

Prompt line: Look up growth inhibition for this compound: `N#CNC(=NCCO)NCCO`
Response line: 7.3

Prompt line: Look up growth inhibition for this compound: `COc1ccc(Br)cc1C=Nc1ccccc1`
Response line: 3.05

Prompt line: Look up growth inhibition for this compound: `Nc1nc(Cc2ccccc2)cc(-c2cc(Cc3ccccc3)nc(N)n2)n1`
Response line: 4.7

Prompt line: Look up growth inhibition for this compound: `O=C(COC(=O)c1cccc([N+](=O)[O-])c1)c1ccc(Br)cc1`
Response line: 20.3

Prompt line: Look up growth inhibition for this compound: `O=C(O)CSCCOCCSCC(=O)O`
Response line: -54

Prompt line: Look up growth inhibition for this compound: C=C(C)CCCC(C)C(O)C=O (stereo unspecified)
Response line: 1.15

Prompt line: Look up growth inhibition for this compound: `O=[n+]1c2c(n([O-])c3ccccc31)CCCCC2`
Response line: -12.7

Prompt line: Look up growth inhibition for this compound: C/C=C/COc1cc2c(cc1C(C)c1ccc(OC)cc1)OCO2 (stereo unspecified)
Response line: -0.95

Prompt line: Look up growth inhibition for this compound: `CC(=O)Cc1nc(N)nc(Nc2ccc(Cl)c(Cl)c2)n1`
Response line: 13.7

Prompt line: Look up growth inhibition for this compound: `C=C(C)COC(CCC)OCC(=C)C`
Response line: 8.1

Prompt line: Look up growth inhibition for this compound: OC(c1ccccc1)C1(O)CCCCC1 (stereo unspecified)
Response line: -5.25

Prompt line: Look up growth inhibition for this compound: `Cc1cc(-c2ccccc2)cc(C[n+]2ccccc2)[n+]1-c1ccccn1`
Response line: 6.2

Prompt line: Look up growth inhibition for this compound: `CSc1cc2c(cc1N)C(=O)c1ccccc1-2`
Response line: 2.45

Prompt line: Look up growth inhibition for this compound: `O=C(O)c1ccc(C(=O)c2ccc(C(=O)c3ccc(C(=O)O)cc3)cc2)cc1`
Response line: -18.4

Prompt line: Look up growth inhibition for this compound: `CC(C)CSc1nc2ccc(N=Cc3ccccc3O)cc2s1`
Response line: -5.5

Prompt line: Look up growth inhibition for this compound: `Nc1cccc(OCc2nc(N)nc(N)c2-c2ccc(Cl)cc2)c1`
Response line: -14.4

Prompt line: Look up growth inhibition for this compound: `CCOC(=O)NC(Nc1ccc([N+](=O)[O-])cc1)(C(F)(F)F)C(F)(F)F`
Response line: 40.2

Prompt line: Look up growth inhibition for this compound: `O=C(C[n+]1ccccc1)c1ccccc1`
Response line: -4.4

Prompt line: Look up growth inhibition for this compound: COCC(=O)C(C(C)=O)C(c1ccc2c(c1)OCO2)C(C(C)=O)C(=O)COC (stereo unspecified)
Response line: -8.25

Prompt line: Look up growth inhibition for this compound: `O=C1CCC2=C(N1)C(=O)C=CC2=O`
Response line: 13.2

* * *

Answer each item with its documented growth inhibition.
assay: NCI Yeast Anticancer Drug Screen. Data for the cln2 rad14 strain (AID 165);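 further: 0% = growth equal to vehicle treated cultures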; conditions: S. cerevisiae cln2 rad14 strain, at 50.0 µM, stronger effect = higher value
About 79,000 compounds went through this panel and 15% of them were active in at least one assay; those are over-represented in the sample as a whole. Calls of active or inactive are those of the source. Cut-off read from the data, not from the text of the source: active = growth inhibition above about 70%; inactive = the rest.

Prompt line: Look up growth inhibition for this compound: O=C(CN1CCN(c2cccc(Cl)c2)CC1)N1CCc2c([nH]c3ccccc23)C1c1cccnc1 (stereo unspecified)
Response line: 6% (inactive)

Prompt line: Look up growth inhibition for this compound: `COc1cc(NCc2c(O)ccc3ccccc23)c2ncccc2c1`
Response line: -11.2% (inactive)

Prompt line: Look up growth inhibition for this compound: `O=C(NNC(=O)c1cccc(F)c1)c1cccc(F)c1`
Response line: 18.9% (inactive)

Prompt line: Look up growth inhibition for this compound: CCCCCCCCCCCC(=O)C1=C(O)C(O)CCC1=O (stereo unspecified)
Response line: -50% (inactive)

Prompt line: Look up growth inhibition for this compound: C[N+]1(CC[N+]2(C)CCCC2c2cccnc2)CCCC1c1cccnc1 (stereo unspecified)
Response line: -34.5% (inactive)

Prompt line: Look up growth inhibition for this compound: `CSc1nc(=O)cnn1C`
Response line: -0.5% (inactive)

Prompt line: Look up growth inhibition for this compound: `CC(C)CSc1nc2ccc(N=Cc3ccccc3O)cc2s1`
Response line: -13% (inactive)

Prompt line: Look up growth inhibition for this compound: `O=C(c1ccccc1)c1c[nH]c(=O)[nH]c1=O`
Response line: -3.2% (inactive)

Prompt line: Look up growth inhibition for this compound: COc1ccc(OC)c(/C=C/C(=O)NC(CO)CSCSC)c1 (stereo unspecified)
Response line: -10.8% (inactive)

Prompt line: Look up growth inhibition for this compound: `O=C(N/N=C\c1cc(=O)[nH]c(=O)[nH]1)c1ccccc1`
Response line: -6.75% (inactive)

Prompt line: Look up growth inhibition for this compound: `CNc1ncnc2[nH]ncc12`
Response line: -18.2% (inactive)

Prompt line: Look up growth inhibition for this compound: `ClCCCCCOCCCCCCl`
Response line: -11.7% (inactive)

Prompt line: Look up growth inhibition for this compound: `CC(C)=C1CCC/C1=N\Nc1ccc([N+](=O)[O-])cc1[N+](=O)[O-]`
Response line: -25.8% (inactive)

Prompt line: Look up growth inhibition for this compound: CC(=O)OCC(C)Cc1ccc(C(C)(C)C)cc1 (stereo unspecified)
Response line: -4% (inactive)

Prompt line: Look up growth inhibition for this compound: `COc1ccc(C(C)=O)cc1C=O`
Response line: -13.2% (inactive)

Prompt line: Look up growth inhibition for this compound: `CC[N+](CC)(CC)C[Si](C)(C)C`
Response line: 2.4% (inactive)

Prompt line: Look up growth inhibition for this compound: `O=C(COC(=O)c1cccc([N+](=O)[O-])c1)c1ccc(Br)cc1`
Response line: -16.2% (inactive)

Prompt line: Look up growth inhibition for this compound: O=C(O)C(Cc1ccccc1)N1C(=O)c2ccccc2C1=O (stereo unspecified)
Response line: -19.6% (inactive)

Prompt line: Look up growth inhibition for this compound: `CCOc1nc(-c2ccccc2)cc(-c2ccc(N3CCOCC3)cc2)c1C#N`
Response line: -11.6% (inactive)

Prompt line: Look up growth inhibition for this compound: `c1ccc(-c2nsc3ccccc23)cc1`
Response line: -31.1% (inactive)

Prompt line: Look up growth inhibition for this compound: `CN1CCC(CO)CC1`
Response line: 9.05% (inactive)

Prompt line: Look up growth inhibition for this compound: `ON=C(C(Cl)(Cl)Cl)C(Cl)(Cl)Cl`
Response line: 4.9% (inactive)

Prompt line: Look up growth inhibition for this compound: O=C(CCN1C(=O)CC1c1ccco1)N1CCOCC1 (stereo unspecified)
Response line: 13.1% (inactive)

Prompt line: Look up growth inhibition for this compound: COCCNC1CCC2(SCCS2)c2[nH]c3ccccc3c21 (stereo unspecified)
Response line: -14% (inactive)

Prompt line: Look up growth inhibition for this compound: `Cc1ccccc1Nc1n[nH]c(=O)n1-c1ccccc1C`
Response line: -12.5% (inactive)

Prompt line: Look up growth inhibition for this compound: CCOC(=O)C(Cc1cn(C(C)=O)c2ccccc12)P(=O)(OCC)OCC (stereo unspecified)
Response line: -1.15% (inactive)
